Assign RP-LC retention time to each entry below.
Assay: gradient 5% acetonitrile 3 min, to 50% in 2 min, to 85% in 15 min, held 3 min, 100 µL/min
Conditions: column: Zorbax Extend-C18 2.1 x 50 mm; eluents: water / acetonitrile, 0.1% formic acid
Give bare numbers, in s.

Solved cases (8 shown):
COMPOUND: Cc1cccc(NC(=O)C2CCN(S(=O)(=O)c3cc(C(=O)N4CCOCC4)cs3)CC2)c1C
RP-LC retention time / s: 760

COMPOUND: CO[C@H]1C(=O)N(C(C)C)[C@H]1C1CCN(S(=O)(=O)c2cccc3nsnc23)CC1
RP-LC retention time / s: 831

COMPOUND: COc1ccc(Cl)cc1S(=O)(=O)N1CCC(C(=O)NCc2ccccn2)CC1
RP-LC retention time / s: 594

COMPOUND: Cc1cccc(CNC(=O)C2CCCN(C(=O)C3Sc4ccccc4NC3=O)C2)c1 (centres undefined)
RP-LC retention time / s: 762

COMPOUND: O=C(C1CCN(c2nc3ccc(-c4cccs4)nc3s2)CC1)N1CCCCC1
RP-LC retention time / s: 911

COMPOUND: CCOc1cc(CNC(=O)C2CCCN(C(=O)c3[nH]c(C)cc3C)C2)cc(OCC)c1OCC (centres undefined)
RP-LC retention time / s: 876

COMPOUND: O=C(Nc1c(F)cccc1F)N1CCc2nc(-c3ccccc3)ncc2C1
RP-LC retention time / s: 811

COMPOUND: CCCn1nnc(NCc2ccc(-c3ccc(C)c(Cl)c3)o2)n1
RP-LC retention time / s: 1130

List reported RP-LC retention time for each of these compounds:
1. CC(=O)N(C1CC1)C1CCOC2(CCN(C(=O)c3sc(C)nc3C)CC2)C1 (centres undefined)
2. O=C(Cc1ccccc1Br)Nc1cc(-c2cccs2)no1
3. CNCC[C@@H](Oc1ccccc1C)c1ccccc1

[reply]
643
973
728

List reported RP-LC retention time for each of these compounds:
1. CCNc1nc(-c2nnc(-c3cccc(C)c3)o2)nc2ccccc12
2. Cc1cccc(NC(=O)C2CCN(S(C)(=O)=O)c3cc(C)ccc3O2)c1 (centres undefined)
3. O=C(Nc1nnc(C2CC(=O)N(c3ccccc3)C2)o1)c1cccc(F)c1 (centres undefined)

[reply]
1. 932
2. 943
3. 711

List reported RP-LC retention time for each of these compounds:
1. CCNC(=O)C1CCCN(c2nc3ncn(CC(=O)Nc4ccccc4Cl)c(=O)c3s2)C1 (centres undefined)
2. Cc1ccc(CNC(=O)C2CCN(c3ccc(SCc4ccccc4)nn3)CC2)cc1
3. O=C1NCCCn2nc(C3CCN(S(=O)(=O)c4ccc5c(c4)CCC5)CC3)cc21

[reply]
1. 664
2. 821
3. 800

List reported RP-LC retention time for each of these compounds:
1. CCc1nnc2nc(N3CCN(C(=O)c4ccc(N(C)C)cc4)CC3)cc(C)n12
2. O=C(Cc1ccsc1)Nc1ccc(N2CCN(c3ccccc3)C2=O)nc1
3. Cc1ccc(NC(=O)Cn2cccc2-c2nnc(C3CCC3)o2)cc1
4. CCN1CCCn2cc(S(=O)(=O)Nc3ccc(C)c(C)c3)cc2C1=O
5. Cn1cnc2cc(OC(=O)c3c(F)cccc3F)ccc21

[reply]
[609, 811, 926, 778, 590]

List reported RP-LC retention time for each of these compounds:
1. Cc1cc(C)n(-c2ccnc(N3CCC(C(=O)N4CCC(C)CC4)CC3)n2)n1
2. O=C(NCc1ccccc1)c1c(O)c2cccnc2[nH]c1=O
3. CS(=O)(=O)N1CCC(OC2CCN(C(=O)NCCc3ccccc3)CC2)CC1
4. COc1ccc(CN2CCN(C(=O)CCC(=O)N3CCCn4nc(C)cc43)CC2)c(OC)c1OC
5. CCCCNC(=O)Cn1nc2c3cc(-c4ccc(C)c(C)c4)nn3ccn2c1=O

[reply]
920
913
724
595
924

List reported RP-LC retention time for each of these compounds:
1. COCCN1C(=O)CCc2cc(NS(=O)(=O)c3ccc(C)c(C)c3)ccc21
2. COC(=O)[C@H]1[C@H]2C[C@H]3c4[nH]c5ccccc5c4CCN3C[C@H]2CC[C@@H]1O
3. O=C(Cn1nc(C(=O)N2CCCC2)c2ccccc21)N1CCN(C2CCCCC2)CC1
4. COc1ccc(CNC(=O)N2CCC3(C2)C(=O)N(C)c2ccccc23)cc1 (centres undefined)

[reply]
816
671
597
734

List reported RP-LC retention time for each of these compounds:
1. CC(C)(C)c1ccc(NS(=O)(=O)c2ccc(N)cc2)cc1
2. CNC(=O)C1CCCN(c2nc3ncn(CC(=O)NCc4ccc(Cl)cc4)c(=O)c3s2)C1 (centres undefined)
3. O=C(NC1CCN(c2cc(-c3ccc(Cl)cc3)[nH]n2)C1)c1ccccc1F (centres undefined)
4. CCCn1cnc2cc(CNC(=O)c3ccc(C(C)C)cc3)ccc21
5. Cc1ccc(-c2[nH]ncc2CN2C[C@@H](CO)[C@H](c3ccncc3)C2)cc1
6. CN(C)CCNC(=O)CN1C(=O)CN(C(=O)NCc2ccccc2)c2ccccc21

[reply]
1: 971; 2: 666; 3: 777; 4: 690; 5: 604; 6: 606

List reported RP-LC retention time for each of these compounds:
1. O=C(C(=O)N1CCc2ccccc2C1)c1c[nH]c2ccccc12
2. O=C(Cn1nc2c(cc1=O)CCCC2)Nc1nc(-c2ccncc2)cs1

[reply]
836
606
